# TESTED SYSTEM: ALPK1 (Homo sapiens, UniProt Q96QP1)
# Sequence (Q96QP1 whole entry): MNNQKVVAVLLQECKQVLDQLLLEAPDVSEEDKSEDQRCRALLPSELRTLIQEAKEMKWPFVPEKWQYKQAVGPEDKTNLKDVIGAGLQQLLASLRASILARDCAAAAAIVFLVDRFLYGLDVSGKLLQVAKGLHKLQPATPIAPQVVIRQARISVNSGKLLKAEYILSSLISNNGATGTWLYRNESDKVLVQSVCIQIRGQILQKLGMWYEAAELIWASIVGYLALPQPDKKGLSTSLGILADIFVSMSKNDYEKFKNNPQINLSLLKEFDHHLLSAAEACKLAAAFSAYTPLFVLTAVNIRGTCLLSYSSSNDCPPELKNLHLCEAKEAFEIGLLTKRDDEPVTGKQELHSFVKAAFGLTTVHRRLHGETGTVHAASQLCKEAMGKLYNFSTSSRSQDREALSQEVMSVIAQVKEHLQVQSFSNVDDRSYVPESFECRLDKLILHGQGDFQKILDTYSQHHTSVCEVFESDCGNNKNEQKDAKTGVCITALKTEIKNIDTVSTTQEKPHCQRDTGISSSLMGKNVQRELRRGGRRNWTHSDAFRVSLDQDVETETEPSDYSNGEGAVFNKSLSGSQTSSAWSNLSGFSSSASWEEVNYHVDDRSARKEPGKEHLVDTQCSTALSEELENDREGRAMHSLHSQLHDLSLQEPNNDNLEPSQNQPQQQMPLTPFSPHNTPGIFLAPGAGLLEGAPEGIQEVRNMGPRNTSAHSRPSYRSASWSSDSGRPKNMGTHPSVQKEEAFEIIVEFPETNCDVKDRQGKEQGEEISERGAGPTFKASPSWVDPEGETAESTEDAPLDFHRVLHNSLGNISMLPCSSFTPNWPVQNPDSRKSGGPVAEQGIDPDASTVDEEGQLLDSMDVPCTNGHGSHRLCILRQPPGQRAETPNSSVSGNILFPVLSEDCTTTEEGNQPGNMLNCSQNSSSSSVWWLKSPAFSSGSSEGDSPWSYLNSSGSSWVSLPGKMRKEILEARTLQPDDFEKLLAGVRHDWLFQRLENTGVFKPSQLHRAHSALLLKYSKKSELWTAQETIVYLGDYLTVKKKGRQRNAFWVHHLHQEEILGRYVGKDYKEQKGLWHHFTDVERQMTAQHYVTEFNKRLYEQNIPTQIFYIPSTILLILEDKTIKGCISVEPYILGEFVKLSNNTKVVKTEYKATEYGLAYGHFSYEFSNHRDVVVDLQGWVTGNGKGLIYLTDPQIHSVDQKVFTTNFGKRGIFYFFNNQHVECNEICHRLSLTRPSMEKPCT
# METHOD DESCRIPTION: IL8 secretion in HEK293 cells (IL8 ELISA) as indicator of ALPK1 activation
# PARTICULARS: without FBS, 4 hours
MEASURED PARAMETER: IL8 secretion in HEK293 cells

# example entries with known answers
COMPOUND	TESTED SYSTEM	VALUE MEASURED
CC(=O)OC[C@H](OC(C)=O)[C@H]1O[C@@H](OP(=O)(O)OP(=O)(O)OC[C@H]2O[C@@H](n3cnc4c(N)ncnc43)[C@H](O)[C@@H]2O)[C@@H](OC(C)=O)[C@@H](OC(C)=O)[C@@H]1OC(C)=O [Compound 21]	ALPK1 (Homo sapiens, UniProt Q96QP1)	increased IL8 secretion
CC(=O)OC[C@@H](OC(C)=O)[C@H]1O[C@@H](OP(=O)(O)OP(O)(=S)OC[C@H]2O[C@@H](n3cnc4c(N)ncnc43)[C@H](O)[C@@H]2O)[C@@H](OC(C)=O)[C@@H](OC(C)=O)[C@@H]1OC(C)=O (stereo partly shown) [Compound 15]	ALPK1 (Homo sapiens, UniProt Q96QP1)	activate IL8 secretion
CC(=O)OC[C@H](F)[C@H]1O[C@@H](OP(=O)(O)OP(=O)(O)OC[C@H]2O[C@@H](n3cnc4c(N)ncnc43)[C@H](O)[C@@H]2O)[C@@H](OC(C)=O)[C@@H](OC(C)=O)[C@@H]1OC(C)=O [Compound 3]	ALPK1 (Homo sapiens, UniProt Q96QP1)	activate IL8 secretion
Nc1ncnc2c1ncn2[C@@H]1O[C@H](COP(=O)(O)OP(=O)(O)O[C@@H]2OC([C@H](O)CO)[C@@H](O)C(O)C2O)C(F)C1O (stereo partly shown) [Compound 2]	ALPK1 (Homo sapiens, UniProt Q96QP1)	activate IL8 secretion
COC1C(OC)[C@@H](COP(=O)(O)OP(=O)(O)O[C@@H]2OC([C@H](O)CO)[C@@H](O)C(O)C2O)O[C@H]1n1cnc2c(N)ncnc21 (stereo partly shown) [Compound 14]	ALPK1 (Homo sapiens, UniProt Q96QP1)	increased IL8 secretion

Query: Respond only with IL8 secretion in HEK293 cells recorded for CC(=O)OC[C@H]1O[C@@H](OP(=O)(O)OP(=O)(O)OC[C@H]2O[C@@H](n3cnc4c(N)ncnc43)[C@H](O)[C@@H]2O)[C@@H](OC(C)=O)[C@@H](OC(C)=O)[C@@H]1OC(C)=O [Compound 5]
Result: increased IL8 secretion

Query: Respond only with IL8 secretion in HEK293 cells recorded for CC(=O)OC[C@@H](OC(C)=O)[C@H]1O[C@@H](OP(=O)(O)OP(=O)(O)OC[C@H]2O[C@@H](n3cnc4c(N)ncnc43)[C@H](O)[C@@H]2F)[C@@H](OC(C)=O)[C@@H](OC(C)=O)[C@@H]1OC(C)=O [Compound 1]
Result: activate IL8 secretion

Query: Respond only with IL8 secretion in HEK293 cells recorded for Nc1ncnc2c1ncn2[C@@H]1O[C@H](COP(O)(=S)OP(=O)(O)O[C@@H]2OC([C@H](O)CO)[C@@H](O)C(O)C2O)C(O)C1O (stereo partly shown) [Compound 16]
Result: increased IL8 secretion

Query: Respond only with IL8 secretion in HEK293 cells recorded for CO[C@@H]1[C@H](OC)[C@@H](COP(=O)(O)OP(=O)(O)O[C@@H]2O[C@H]([C@@H](COC(C)=O)OC(C)=O)[C@@H](OC(C)=O)[C@H](OC(C)=O)[C@@H]2OC(C)=O)O[C@H]1n1cnc2c(N)ncnc21 [Compound 13]
Result: increased IL8 secretion

Query: Respond only with IL8 secretion in HEK293 cells recorded for Nc1ncnc2c1ncn2[C@@H]1O[C@H](COP(=O)(O)OP(=O)(O)O[C@@H]2OC([C@@H](O)CO)[C@@H](O)C(O)C2O)C(O)C1O (stereo partly shown) [Compound 22]
Result: increased IL8 secretion

Query: Respond only with IL8 secretion in HEK293 cells recorded for CC(=O)OC[C@@H](OC(C)=O)[C@H]1O[C@@H](OP(=O)(O)OP(=O)(O)OC[C@@]2(F)O[C@@H](n3cnc4c(N)ncnc43)[C@@H]3OC(C)(C)O[C@@H]32)[C@@H](OC(C)=O)[C@@H](OC(C)=O)[C@@H]1OC(C)=O [Compound 19]
Result: activate IL8 secretion

Query: Respond only with IL8 secretion in HEK293 cells recorded for CC(=O)OC[C@@H](OC(C)=O)[C@H]1O[C@@H](OP(=O)(O)OP(=O)(O)OC[C@H]2O[C@@H](n3cnc4c(N)ncnc43)[C@H](O)[C@H]2F)[C@@H](OC(C)=O)[C@@H](OC(C)=O)[C@@H]1OC(C)=O [Compound 17]
Result: increased IL8 secretion

Query: Respond only with IL8 secretion in HEK293 cells recorded for CC(=O)OC[C@@H](OC(C)=O)[C@H]1O[C@@H](OP(=O)(O)OP(=O)(O)OC[C@@]2(F)O[C@@H](n3cnc4c(N)ncnc43)[C@H](O)[C@@H]2O)[C@@H](OC(C)=O)[C@@H](OC(C)=O)[C@@H]1OC(C)=O [Compound 20]
Result: activate IL8 secretion
